# Tgt: p-Akt2 in WM115 cells (Homo sapiens)
# Construct: SureFire assays to detect cellular p-Akt1, p-Akt2 and p-Akt3 levels in WM115 cells (Akt2/3) and LNCaP cells (Akt1); endogenous in cells; host or cells: WM115 (ECACC 91061232), insulin-stimulated
# Sequence (P31751 whole entry): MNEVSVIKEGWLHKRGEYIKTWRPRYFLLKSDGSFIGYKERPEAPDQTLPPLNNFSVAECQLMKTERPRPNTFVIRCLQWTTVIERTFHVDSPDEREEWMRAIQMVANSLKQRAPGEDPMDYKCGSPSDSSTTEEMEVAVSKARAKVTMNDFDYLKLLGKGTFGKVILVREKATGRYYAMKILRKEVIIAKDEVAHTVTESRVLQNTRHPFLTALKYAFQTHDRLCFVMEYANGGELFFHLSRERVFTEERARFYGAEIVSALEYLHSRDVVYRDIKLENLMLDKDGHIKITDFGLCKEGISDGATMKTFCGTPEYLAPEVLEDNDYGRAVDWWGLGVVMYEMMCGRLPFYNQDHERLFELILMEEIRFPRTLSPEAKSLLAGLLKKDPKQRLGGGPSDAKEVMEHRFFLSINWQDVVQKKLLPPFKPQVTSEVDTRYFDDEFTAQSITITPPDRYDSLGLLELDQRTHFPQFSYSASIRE
# Method Description: Phospho-Akt cellular SureFire assay, p-Akt2 in WM115 cells
# Format: cell-based
# Details: insulin stimulated, read-out: Biological Assay 2 IC50 (nM) Akt2 WM115
Overview of recorded IC50 for various compounds

Compound | Unit Of Measurement | Op | IC50
NC1(c2ccc(-c3nnc(NC(=O)C[C@H]4CC[C@H](N5CCOC5=O)CC4)cc3-c3ccccc3)cc2F)CC1 [Example A50] | nM | > | 3790
COC(=O)N(C)[C@H]1CC[C@H](CC(=O)Nc2cc(-c3ccccc3)c(-c3ccc(C(C)(C)N)cc3)cn2)CC1 [Example A48] | nM | > | 30000
COC(=O)N(C)[C@H]1CC[C@H](CC(=O)Nc2cc(-c3ccccn3)c(-c3ccc(C4(N)CC4)cc3)cn2)CC1 [Example A88] | nM | > | 30000
CC(=O)N(C)[C@H]1CC[C@H](CC(=O)Nc2cc(-c3ccccc3)c(-c3ccc([C@]4(N)C[C@](C)(O)C4)cc3)cn2)CC1 [Example A58] | nM | = | 480
CC(=O)N(C(C)C)[C@H]1CC[C@H](CC(=O)Nc2cnc(-c3ccc([C@]4(N)C[C@](C)(O)C4)cc3)c(-c3ccccc3)c2)CC1 [Example 120] | nM | = | 350
COC(=O)N(C)[C@H]1CC[C@H](CC(=O)Nc2cc(-c3ccccc3)c(-c3ccc([C@]4(N)C[C@](C)(O)C4)cc3)cn2)CC1 [Example 67] | nM | = | 1500

* * *

# Tgt: p-Akt1 in LNCaP cells (Homo sapiens, UniProt P31749)
# Construct: SureFire assays to detect cellular p-Akt1, p-Akt2 and p-Akt3 levels in WM115 cells (Akt2/3) and LNCaP cells (Akt1); endogenous in cells; host or cells: LNCaP (ECACC 89110211)
# Sequence (P31749 whole entry): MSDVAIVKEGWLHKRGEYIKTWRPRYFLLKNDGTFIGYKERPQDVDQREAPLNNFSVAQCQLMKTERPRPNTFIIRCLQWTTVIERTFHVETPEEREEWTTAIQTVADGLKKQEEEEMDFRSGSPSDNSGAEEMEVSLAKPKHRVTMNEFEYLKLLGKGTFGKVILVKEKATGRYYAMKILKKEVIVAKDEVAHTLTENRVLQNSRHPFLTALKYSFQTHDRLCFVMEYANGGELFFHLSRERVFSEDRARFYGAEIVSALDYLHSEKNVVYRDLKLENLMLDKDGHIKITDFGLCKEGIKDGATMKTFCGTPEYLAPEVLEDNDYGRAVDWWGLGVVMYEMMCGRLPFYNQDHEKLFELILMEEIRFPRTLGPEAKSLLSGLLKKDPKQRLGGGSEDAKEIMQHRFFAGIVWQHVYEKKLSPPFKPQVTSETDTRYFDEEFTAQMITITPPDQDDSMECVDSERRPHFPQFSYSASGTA
# Method Description: Phospho-Akt cellular SureFire assay, p-Akt1 in LNCaP cells
# Assay type: cell-based
# Details: read-out: Biological Assay 2 IC50 (nM) Akt1 LNCaP
Listing: IC50 of selected compounds

Molecular String | IC50
NC1(c2ccc(-c3cnc(NC(=O)C[C@H]4CC[C@H](N5CCCC5=O)CC4)cc3-c3ccccc3)cc2)CC1 | > 20000 nM
COC(=O)N[C@H]1CC[C@H](CC(=O)Nc2cnc(-c3ccc(C4(N)CC(F)(F)C4)cc3)c(-c3ccccc3)c2)CC1 | > 30000 nM
CC(=O)N(C)[C@H]1CC[C@H](CC(=O)Nc2cnc(-c3ccc(C4(N)CCC4)cc3)c(-c3ccccc3F)c2)CC1 | 11000 nM
CC(C)C(=O)N(C)[C@H]1CC[C@H](CC(=O)Nc2cc(-c3ccccc3)c(-c3ccc(C(C)(C)N)cc3)nn2)CC1 | > 20000 nM
CC(=O)N[C@H]1CC[C@H](CC(=O)Nc2cnc(-c3ccc(C4(N)CCC4)cc3)c(-c3ccccc3)c2)CC1 | > 5700 nM
N[C@]1(c2ccc(-c3nnc(NC(=O)C[C@H]4CC[C@H](N5CCOC5=O)CC4)cc3-c3ccccc3)cc2)C[C@@H](F)C1 | > 30000 nM
COC(=O)N(C)[C@H]1CC[C@H](CC(=O)Nc2cc(-c3ccsc3)c(-c3ccc([C@]4(N)C[C@H](F)C4)cc3)nn2)CC1 | > 30000 nM
CCC(=O)N(C)[C@H]1CC[C@H](CC(=O)Nc2cc(-c3ccccc3)c(-c3ccc(C4(N)CC4)c(F)c3)nn2)CC1 | > 30000 nM
CC(C)(N)c1ccc(-c2ncc(NC(=O)C[C@H]3CC[C@H](N4CCCCC4=O)CC3)cc2-c2ccccc2)cc1 | > 30000 nM
